Just for reference, the supplement of paper PMC10567573 is where these values come from.

B1: MYBL2 (parent)
chain: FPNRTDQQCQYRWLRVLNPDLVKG

Variants of: B1
assay_details: protein stability index of a GFP-peptide fusion (GPS, HEK-293T) (PSI 1-6); higher = more stable;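 note: lentivirally expressed fusions sorted by FACS into six bins by GFP to DsRed ratio, PSI derived from sequencing read proportions per bin multiplied by bin number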
condition_info: c terminus: a fixed tail appended
endpoint_name: protein stability index

[
  {
    "variant_name": "V16T",
    "endpoint_name": "protein stability index",
    "assay_value": 2.13
  },
  {
    "variant_name": "P19Q",
    "endpoint_name": "protein stability index",
    "assay_value": 1.94
  },
  {
    "variant_name": "R12Y",
    "endpoint_name": "protein stability index",
    "assay_value": 2.46
  },
  {
    "variant_name": "K23F",
    "endpoint_name": "protein stability index",
    "assay_value": 2.47
  },
  {
    "variant_name": "V16P",
    "endpoint_name": "protein stability index",
    "assay_value": 2.72
  },
  {
    "variant_name": "L17Y",
    "endpoint_name": "protein stability index",
    "assay_value": 1.34
  },
  {
    "variant_name": "Q7W",
    "endpoint_name": "protein stability index",
    "assay_value": 2.29
  },
  {
    "variant_name": "Q10E",
    "endpoint_name": "protein stability index",
    "assay_value": 2.23
  },
  {
    "variant_name": "R4H",
    "endpoint_name": "protein stability index",
    "assay_value": 2.47
  },
  {
    "variant_name": "F1C",
    "endpoint_name": "protein stability index",
    "assay_value": 2.24
  },
  {
    "variant_name": "Q10N",
    "endpoint_name": "protein stability index",
    "assay_value": 1.76
  },
  {
    "variant_name": "Q10M",
    "endpoint_name": "protein stability index",
    "assay_value": 1.47
  },
  {
    "variant_name": "R15V",
    "endpoint_name": "protein stability index",
    "assay_value": 2.2
  },
  {
    "variant_name": "Q10T",
    "endpoint_name": "protein stability index",
    "assay_value": 1.93
  },
  {
    "variant_name": "V22A",
    "endpoint_name": "protein stability index",
    "assay_value": 1.71
  },
  {
    "variant_name": "C9K",
    "endpoint_name": "protein stability index",
    "assay_value": 2.76
  },
  {
    "variant_name": "W13I",
    "endpoint_name": "protein stability index",
    "assay_value": 1.91
  },
  {
    "variant_name": "Q8M",
    "endpoint_name": "protein stability index",
    "assay_value": 1.83
  },
  {
    "variant_name": "V16C",
    "endpoint_name": "protein stability index",
    "assay_value": 1.97
  },
  {
    "variant_name": "P2G",
    "endpoint_name": "protein stability index",
    "assay_value": 1.88
  },
  {
    "variant_name": "P19N",
    "endpoint_name": "protein stability index",
    "assay_value": 2.01
  },
  {
    "variant_name": "N3I",
    "endpoint_name": "protein stability index",
    "assay_value": 1.82
  },
  {
    "variant_name": "L14A",
    "endpoint_name": "protein stability index",
    "assay_value": 3.17
  },
  {
    "variant_name": "V22Q",
    "endpoint_name": "protein stability index",
    "assay_value": 1.54
  },
  {
    "variant_name": "N3Y",
    "endpoint_name": "protein stability index",
    "assay_value": 1.87
  },
  {
    "variant_name": "G24D",
    "endpoint_name": "protein stability index",
    "assay_value": 1.94
  },
  {
    "variant_name": "P2R",
    "endpoint_name": "protein stability index",
    "assay_value": 2.49
  },
  {
    "variant_name": "N3D",
    "endpoint_name": "protein stability index",
    "assay_value": 1.83
  },
  {
    "variant_name": "W13S",
    "endpoint_name": "protein stability index",
    "assay_value": 3.03
  },
  {
    "variant_name": "R15M",
    "endpoint_name": "protein stability index",
    "assay_value": 1
  },
  {
    "variant_name": "G24V",
    "endpoint_name": "protein stability index",
    "assay_value": 1.71
  },
  {
    "variant_name": "L17P",
    "endpoint_name": "protein stability index",
    "assay_value": 2.56
  },
  {
    "variant_name": "K23L",
    "endpoint_name": "protein stability index",
    "assay_value": 1.64
  },
  {
    "variant_name": "D20N",
    "endpoint_name": "protein stability index",
    "assay_value": 2.43
  },
  {
    "variant_name": "F1S",
    "endpoint_name": "protein stability index",
    "assay_value": 2.51
  },
  {
    "variant_name": "L17E",
    "endpoint_name": "protein stability index",
    "assay_value": 2.32
  },
  {
    "variant_name": "Q8R",
    "endpoint_name": "protein stability index",
    "assay_value": 1.96
  },
  {
    "variant_name": "Q7I",
    "endpoint_name": "protein stability index",
    "assay_value": 2.07
  },
  {
    "variant_name": "Q7N",
    "endpoint_name": "protein stability index",
    "assay_value": 2.38
  },
  {
    "variant_name": "P2H",
    "endpoint_name": "protein stability index",
    "assay_value": 1.86
  },
  {
    "variant_name": "L17V",
    "endpoint_name": "protein stability index",
    "assay_value": 2.04
  },
  {
    "variant_name": "P2C",
    "endpoint_name": "protein stability index",
    "assay_value": 1.84
  },
  {
    "variant_name": "P2S",
    "endpoint_name": "protein stability index",
    "assay_value": 2.3
  },
  {
    "variant_name": "V22Y",
    "endpoint_name": "protein stability index",
    "assay_value": 2.01
  },
  {
    "variant_name": "V22S",
    "endpoint_name": "protein stability index",
    "assay_value": 2.25
  },
  {
    "variant_name": "T5N",
    "endpoint_name": "protein stability index",
    "assay_value": 2.01
  }
]
